- System: Mus musculus
- Protocol: Prodrug conversion in C57B1/6 mouse plasma assessed as parent compound level at […], iv administered as single bolus dose after 4 to 5 mins by reversed-phase LC/MS analysis
- Format: ADME, organism-based
- Study conditions: in vivo, read-out: Drug metabolism
Outcome measure: concentration (µM)
Answer format: numeric, µM implied, no suffix.

### Prompt Provide measured concentration value, entry: Cl.N=C(N)NCCC[C@H](N)C(=O)Nc1ccc(Oc2ccc(S(=O)(=O)CC3CS3)cc2)cc1 (stereo partly specified)
### Response 7.32

====

- Tested on: Mus musculus
- Protocol: Prodrug conversion in C57B1/6 mouse plasma assessed as parent compound level at […], iv administered as single bolus dose after 62 to 66 mins by reversed-phase LC/MS analysis
- Format: ADME, organism-based
- Study conditions: in vivo, read-out: Drug metabolism
Outcome measure: concentration (nM)
Answer format: numeric, nM implied, no suffix.

### Prompt Provide measured concentration value, entry: Cl.N=C(N)NCCC[C@H](N)C(=O)Nc1ccc(Oc2ccc(S(=O)(=O)CC3CS3)cc2)cc1 (stereo partly specified)
### Response 38.5
